experiment.description: physchem
applied.conditions: aqueous with cosolvent or surfactant or cyclodextrin
recorded.endpoint: solubility

State its solubility for this compound: CC1=C(/C=C/C(C)=C/C=C/C(C)=C/C=C/C=C(C)/C=C/C=C(C)/C=C/C2=C(C)CCCC2(C)C)C(C)(C)CCC1 [β-carotene]
~50 µg/mL
